B1: LINE1-mini (parent)
chain: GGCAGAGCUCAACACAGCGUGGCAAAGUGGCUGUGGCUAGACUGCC

# Variants of: B1
# assay_notes: self-cleavage, relative activity (ratio to wild type); higher = more cleavage; in vitro, sequencing; the parent is a self-cleaving ribozyme
Returns one of t or f; t when self-cleavage is >= 0.09.

>>> cat("C8G A41U")
"t"

Determine whether measured self-cleavage meets or exceeds 0.09 for G1C C37A
f

Determine whether measured self-cleavage meets or exceeds 0.09 for A25U G35U
t

Determine whether measured self-cleavage meets or exceeds 0.09 for G22C A41G
t

# credit: the RNAGym collection of RNA variant scans (doi:10.7554/elife.90254)
